Data provenance is the Immune Epitope Database (IEDB).

molecular target: HLA-A*02:02; test: IEDB peptide-MHC binding, purified MHC/competitive/radioactivity; filed as Kd, often an IC50 or EC50 that approximates it; bounds were set here for any values at or beyond the usual limits of such assays; settings: source organism: SARS coronavirus Tor2
measurementKind: Kd (nM)
Enter your answer as a number in nM; do not include the unit.

residueSequence: FMRFFTLGSI
measurementKind: Kd
endpointValue: 24.2
//
residueSequence: WLVIGVAFL
measurementKind: Kd
endpointValue: 2.57

Next sequence, Kd to be filled in.
Ask | // Kd lookup, key: IMQVFFGYFA
Reply | 590

----------
The sequences listed here are annotated with their pKd.
molecular target: HLA-A*23:01; assay: IEDB peptide-MHC binding, purified MHC/competitive/radioactivity; filed as Kd, often an IC50 or EC50 that approximates it; bounds were set here for any values at or beyond the usual limits of such assays; details: source organism: SARS coronavirus Tor2
pKd: −log10 of the molar value.

residueSequence: PTITQMNLKY
pKd: ≤ 4.15

Ask | May I ask what pKd has been recorded for TAEDMLNPNY ?
Reply | ≤ 4.15

Ask | Please give the measured pKd for this sequence: LSDDAVVCY
Reply | ≤ 4.11

Ask | Fill blank: measured pKd of the sequence GPDDQIGYY is ____.
Reply | ≤ 4.11

Ask | Please give the measured pKd for this sequence: AEDMLNPNY
Reply | ≤ 4.11

Ask | Fill in: pKd of LQSLENVAY is ___
Reply | ≤ 4.11

Ask | Query (sequence): AYLRKHFSM ; field requested: pKd
Reply | ≤ 4.61

Ask | Request the reported pKd associated with FTILCLVPAY
Reply | ≤ 4.15

Ask | What value of pKd has been recorded for this entry: VTPSGTWLTY
Reply | ≤ 4.31

----------
target: HLA-A*31:01; assay: IEDB peptide-MHC binding, purified MHC/competitive/radioactivity; filed as Kd, often an IC50 or EC50 that approximates it; bounds were set here for any values at or beyond the usual limits of such assays; settings: source organism: Vaccinia virus WR
measurementKind: Kd (nM)
Express the result in nM but write the number alone.

residueSequence: NITLKIIETY
resultUnit: nM
endpointValue: 1210
//
residueSequence: KTKISVEKIK
resultUnit: nM
endpointValue: 818
//
residueSequence: ITDNGPMPY
resultUnit: nM
endpointValue: 1200
//
residueSequence: DMMFINSTCY
resultUnit: nM
endpointValue: 974

Ask | Given the entry LTQIFEVYWY , what Kd was observed with HLA-A*31:01?
Reply | 934

----------
target: HLA-A*33:01; assay: IEDB peptide-MHC binding, purified MHC/competitive/radioactivity; filed as Kd, often an IC50 or EC50 that approximates it; bounds were set here for any values at or beyond the usual limits of such assays; conditions: source organism: Vaccinia virus WR
pKd: −log10 of the molar value.
// values below are reported pKd

residueSequence: DIVNGKECCY
measurementKind: pKd
endpointValue: ≤ 4.15

Ask | # get_value(readout='pKd', item= KTKISVEKIK )
Reply | ≤ 4.15

Ask | I would be grateful if you could share the reported pKd for LSSKGLACY .
Reply | ≤ 4.11

Ask | # get_value(readout='pKd', item= AIEKDRLDK )
Reply | ≤ 4.11

----------
molecular target: HLA-A*02:02; test: IEDB peptide-MHC binding, purified MHC/competitive/radioactivity; filed as Kd, often an IC50 or EC50 that approximates it; bounds were set here for any values at or beyond the usual limits of such assays; conditions: source organism: Vaccinia virus WR
pKd: −log10 of the molar value.
pKd below 6 gives NO; pKd at or above it gives YES.

Field: example entries. Status: answers known.
residueSequence: STTGEWPLI
group: NO

residueSequence: CTFMIITSTK
group: NO

residueSequence: GIYNCCESNI
group: YES

residueSequence: LMSDNPKAST
group: NO

residueSequence: NMDKVSAQNI
group: NO

Ask | I'd appreciate it if you could say whether RVFKKIMSI has pKd at least equal to 6.
Reply | YES

----------
Kd: recorded values
molecular target: HLA-B*15:03; test: IEDB peptide-MHC binding, purified MHC/competitive/radioactivity; filed as Kd, often an IC50 or EC50 that approximates it; bounds were set here for any values at or beyond the usual limits of such assays; conditions: source organism: Vaccinia virus WR
Unit nM implied. Number only.

For orientation, consider the following solved cases.
residueSequence: NMGVAMNLF
resultUnit: nM
Kd: 998
--
residueSequence: IMRNFLRSI
resultUnit: nM
Kd: 106
--
residueSequence: LSISCPNSL
resultUnit: nM
Kd: 256

Could you now consider this next sequence?
Ask | Name the recorded Kd for MKITRPRHF .
Reply | 1.04

----------
biological target: HLA-A*02:06; assay: IEDB peptide-MHC binding, purified MHC/competitive/radioactivity; filed as Kd, often an IC50 or EC50 that approximates it; bounds were set here for any values at or beyond the usual limits of such assays; conditions: source organism: Vaccinia virus WR
pKd: −log10 of the molar value.
measurementKind: pKd

Example entries and their recorded answers appear below.
residueSequence: VLKAMHDKKI
targetOrSystem: HLA-A*02:06
pKd: ≤ 4.16

residueSequence: LIQYRQQLEL
targetOrSystem: HLA-A*02:06
pKd: ≤ 4.28

residueSequence: YVKNGTKGKL
targetOrSystem: HLA-A*02:06
pKd: ≤ 4.55

residueSequence: KLKVDSDSGL
targetOrSystem: HLA-A*02:06
pKd: ≤ 5.00

residueSequence: EIDVSEVKTL
targetOrSystem: HLA-A*02:06
pKd: ≤ 4.25

Then this sequence:
Ask | // pKd lookup, key: AATKRYPGVM
Reply | ≤ 4.33

----------
molecular target: HLA-A*11:01; assay: IEDB peptide-MHC binding, purified MHC/competitive/radioactivity; filed as Kd, often an IC50 or EC50 that approximates it; bounds were set here for any values at or beyond the usual limits of such assays; conditions: source organism: Vaccinia virus WR
pKd: −log10 of the molar value.
// reported pKd per item

Take a look at these entries with their results.
residueSequence: DLIKKSDAK
targetOrSystem: HLA-A*11:01
measurementKind: pKd
endpointValue: ≤ 4.50
--
residueSequence: IVTVTTKDY
targetOrSystem: HLA-A*11:01
measurementKind: pKd
endpointValue: ≤ 4.49

Ask | Given CYLDTNIKM , state its recorded pKd.
Reply | ≤ 4.11

----------
biological target: HLA-A*03:01; test: IEDB peptide-MHC binding, purified MHC/competitive/radioactivity; filed as Kd, often an IC50 or EC50 that approximates it; bounds were set here for any values at or beyond the usual limits of such assays; settings: source organism: Vaccinia virus WR
measurementKind: Kd

residueSequence: FLELKRGIY
Kd: ≥ 78 µM
//
residueSequence: NSCSIGNVTR
Kd: ≥ 70.1 µM

For the next question, use this sequence.
Ask | Consider the sequence SIPISELSR and give its measured Kd.
Reply | ≥ 24.6 µM

----------
molecular target: HLA-A*02:03; assay: IEDB peptide-MHC binding, purified MHC/competitive/radioactivity; filed as Kd, often an IC50 or EC50 that approximates it; bounds were set here for any values at or beyond the usual limits of such assays; details: source organism: Vaccinia virus WR
pKd: −log10 of the molar value.
# cutoff 6 applies to pKd; >= gives Met, < gives Not met

These solved cases illustrate the format of a correct answer.
residueSequence: VLKAMHDKKI
group: Not met

residueSequence: YIESKAKQL
group: Met

residueSequence: GIADIRDKYM
group: Met

residueSequence: PTILATLNTL
group: Met

residueSequence: NMDKVSAQNI
group: Not met

Proceed to the following item.
Ask | Hi team, for LATLNTLIT , is the recorded pKd at or above 6?
Reply | Not met

----------
biological target: HLA-A*11:01; assay: IEDB peptide-MHC binding, purified MHC/competitive/radioactivity; filed as Kd, often an IC50 or EC50 that approximates it; bounds were set here for any values at or beyond the usual limits of such assays; details: source organism: Vaccinia virus WR
measurementKind: pKd
Kindly note that pKd refers to -log10 of the concentration in mol/L and answer with the value alone.

Study these solved cases before continuing.
residueSequence: MLEGETKLY
measurementKind: pKd
endpointValue: 5.15
//
residueSequence: LLHCVTESYK
measurementKind: pKd
endpointValue: 6.89
//
residueSequence: SIPISELSR
measurementKind: pKd
endpointValue: 6.90

Ask | pKd for QTQTYNIGK ?
Reply | 8.15

Ask | Any idea what pKd was measured for DMMFINSTCY ?
Reply | 4.97

Ask | // lookup pKd for VADLSARNK
Reply | 6.82

Ask | Which pKd reading was recorded for the sequence KTKISVEKIK ?
Reply | 6.56

Ask | Need pKd, item ISIISIRPR
Reply | 6.58
